Hey, just so you know, these numbers are from patent US20260242478A1.

tested-on: T1, PSMA Fab (006 PSMA Fab)
T1 construct: also called Anti-PSMA Fab; anti-PSMA Fab
measurement-description: clonal phage ELISA; biotinylated PSMA Fab on neutravidin plate, blocking buffer alone, anti-M13-HRP detection;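 also: crude clonal phage supernatants added without washing to wells preincubated with PSMA antigen or with blocking buffer alone, briefly incubated, then washed before bound phage detection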
Where no end group is shown, it is not given here.
value-type: Phage binding ELISA signal, Anti-PSMA Fab
Answers are plain numbers.

{"binder": "NVSMCIPNWMCVGL (cysteine pairing not given here; also: displayed on bacteriophage as fusion to pIII, linker not given here) [Phage-2711]", "value-measured": 0.791}
{"binder": "WENWCRPSWMCEDT (cysteine pairing not given here; also: displayed on bacteriophage as fusion to pIII, linker not given here) [Phage-2712]", "value-measured": 0.79}
{"binder": "SVKWCTPPWMCTGL (cysteine pairing not given here; also: displayed on bacteriophage as fusion to pIII, linker not given here) [Phage-2710]", "value-measured": 0.792}

Okay, here is my list. What is Phage binding ELISA signal, Anti-PSMA Fab for each of these?
1. TQKWCIPAWMCAER (cysteine pairing not given here; also: displayed on bacteriophage as fusion to pIII, linker not given here) [Phage-2718]
2. VYKWCTPSWMCADP (cysteine pairing not given here; also: displayed on bacteriophage as fusion to pIII, linker not given here) [Phage-2715]
3. EWKWCTPPWMCTTN [Phage-2724]
4. EYTWCKPAWMCDGV (cysteine pairing not given here; also: displayed on bacteriophage as fusion to pIII, linker not given here) [Phage-2717]
5. DWKWCTPSWMCAQK (cysteine pairing not given here; also: displayed on bacteriophage as fusion to pIII, linker not given here) [Phage-2720]

Outgoing:
1. 0.774
2. 0.779
3. 0.752
4. 0.774
5. 0.769
